# Test system: MS2 coat protein
# experiment notes: apparent KD of MS2 coat protein; higher = weaker reporter binding
# reported conditions: Eterna round: R107; input ligand: tryptophan 2.4 mM
Listed sequences paired with reported apparent KD of MS2 coat protein
assay metric: apparent KD of MS2 coat protein (nM)

[[record]]
monomer_sequence = "UCACGGCACUGAAGGAGCGAGUUGACAAACAUGAGGAUCACCCAUGUUAUGGGUUGUUAAUCUCAGGUAGGUCGCAGUUGUCGUG [Same State Arginine B GF 21]"
assay_metric = "apparent KD of MS2 coat protein"
observed = 388

[[record]]
monomer_sequence = "GUUGUAUACUCGGCCGCCACUGAGAGAGUCAUGUGAACAUGAGGAUCACCCAUGUAAUAUAUAUACAGGACCGGGAGUGUGGUAA [4.H]"
assay_metric = "apparent KD of MS2 coat protein"
observed = 15.8

[[record]]
monomer_sequence = "AUGCACGGGCUAAUCUGCGAUUGGCACGAUACCAGAGAUCAAGACCUCCCUUGGCAGCGUGUCACAUGAGGAUCACCCAUGUGGA [theeternabot_exclusion_MS2_Theo_A_40]"
assay_metric = "apparent KD of MS2 coat protein"
observed = 141

[[record]]
monomer_sequence = "UUGUUAUACGGAAGGAGCGUGUAAGAUUAAGAACAUGAGGAUCACCCAUGUUUUAAGGGAACACAGGUAGGUCGCCGUAUAGUGG [11.P]"
assay_metric = "apparent KD of MS2 coat protein"
observed = 14.7

[[record]]
monomer_sequence = "CUCUUCCGGAAGGAUACCAGCUACAUGAGGAUCACCCAUGUAGGAGCGGGUUUCUAAUGUAGCCCUUGGCAGCCUUAGCCCGUCG [Querarra]"
assay_metric = "apparent KD of MS2 coat protein"
observed = 18

[[record]]
monomer_sequence = "GAAAAUCCCGUACAUGAGGAUCACCCAUGUCGAGGACCGGUACGGCCGCCACUCGCACGCAUUGCAUUGGAGGGUCAGGUACGAG [Erenerrati]"
assay_metric = "apparent KD of MS2 coat protein"
observed = 75.5

